molecular target: RORγt (Homo sapiens); test: RORγt binding test using fluorescent-labeled synthetic ligand (TR-FRET); details: read-out: Binding inhibitory rate of fluorescent-labeled synthetic ligand to RORγt at test compound 1 μM (%)
Sequence (P51449 1-497 isoform P51449-2, species assumed): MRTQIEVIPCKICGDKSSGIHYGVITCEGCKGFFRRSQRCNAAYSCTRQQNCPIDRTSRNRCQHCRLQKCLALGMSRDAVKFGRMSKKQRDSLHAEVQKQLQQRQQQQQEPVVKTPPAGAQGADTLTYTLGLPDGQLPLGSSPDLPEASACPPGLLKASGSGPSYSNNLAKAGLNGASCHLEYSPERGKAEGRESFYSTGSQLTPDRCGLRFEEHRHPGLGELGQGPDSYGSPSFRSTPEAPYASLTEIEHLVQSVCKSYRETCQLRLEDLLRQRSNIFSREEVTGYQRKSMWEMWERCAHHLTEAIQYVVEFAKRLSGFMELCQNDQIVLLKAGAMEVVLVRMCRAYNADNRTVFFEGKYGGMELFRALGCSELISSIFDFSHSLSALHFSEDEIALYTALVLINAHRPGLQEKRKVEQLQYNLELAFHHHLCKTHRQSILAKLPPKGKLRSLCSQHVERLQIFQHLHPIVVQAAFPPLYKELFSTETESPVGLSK
MEASURED QUANTITY: inhibition at 1 µM (%)
The reply should contain only the number, in %.

Answered cases to consult:
>  <COMPOUND>
COc1ccc2c(c1)CCN(C(=O)N1CC(CC(=O)O)C1)[C@H]2C(=O)Nc1ccc([Si](C)(C)C)c(F)c1 [Example 279]

>  <UNIT SYMBOL>
%

>  <inhibition at 1 µM>
102

$$$$
>  <COMPOUND>
COCc1ccc2c(c1)CCN(C(=O)Cc1cc(O)no1)[C@H]2C(=O)Nc1ccc([Si](C)(C)C)c(F)c1 [Example 101]

>  <UNIT SYMBOL>
%

>  <inhibition at 1 µM>
102

$$$$
>  <COMPOUND>
COCC(C)(C)c1ccc(NC(=O)[C@H]2c3ccc(OC)cc3CCN2C(=O)c2cc(O)no2)cc1F [Example 69]

>  <UNIT SYMBOL>
%

>  <inhibition at 1 µM>
101

$$$$
>  <COMPOUND>
CCOc1ccc2c(c1)CCN(C(=O)N1CC(CC(=O)O)C1)[C@H]2C(=O)Nc1cc(F)c([Si](C)(C)C)c(F)c1 [Example 231]

>  <UNIT SYMBOL>
%

>  <inhibition at 1 µM>
101

$$$$
>  <COMPOUND>
CCOc1ccc2c(c1)CCN(C(=O)CCCC(=O)O)[C@H]2C(=O)Nc1cc(F)c(C(C)(C)COCC(F)F)c(F)c1 [Example 153]

>  <UNIT SYMBOL>
%

>  <inhibition at 1 µM>
102

$$$$

Quick one: inhibition at 1 µM for COc1ccc2c(c1)CCN(C(=O)[C@H]1CNC(=O)C1)[C@H]2C(=O)Nc1ccc(C(C)(C)C)c(F)c1 [Example 26] ?
101

Quick one: inhibition at 1 µM for CCOc1ccc2c(c1)CCN(C(=O)NCCCC(=O)O)[C@H]2C(=O)Nc1cc(F)c([Si](C)(C)C)c(F)c1 [Example 238] ?
101

Quick one: inhibition at 1 µM for CCOCC(C)(C)c1c(F)cc(NC(=O)[C@H]2c3ccc(OCC)cc3CCN2C(=O)CCCC(=O)O)cc1F [Example 166] ?
102

Quick one: inhibition at 1 µM for CCOc1ccc2c(c1)CCN(C(=O)CCCC(=O)O)[C@H]2C(=O)Nc1ccc([Si](C)(C)C)c(F)c1 [Example 183] ?
101

Quick one: inhibition at 1 µM for COc1ccc2c(c1)CCN(C(=O)[C@@H]1CNC(=O)C1)[C@H]2C(=O)Nc1ccc(C(C)(C)C)c(F)c1 [Example 25] ?
101

Quick one: inhibition at 1 µM for CC[Si](C)(C)c1c(F)cc(NC(=O)[C@H]2c3ccc(OC)cc3CCN2C(=O)CCCC(=O)O)cc1F [Example 86] ?
102

Quick one: inhibition at 1 µM for COc1ccc2c(c1)CCN(C(=O)c1cc(O)no1)[C@H]2C(=O)Nc1ccc(C(C)(C)C)c(F)c1 [Example 13] ?
102

Quick one: inhibition at 1 µM for CCOc1ccc2c(c1)CCN(C(=O)CCC(=O)O)[C@H]2C(=O)Nc1cc(F)c([Si](C)(C)C)c(F)c1 [Example 180] ?
101
